test: Solubility assessment of MH1 in solvents (HPLC of liquors, XRPD of isolated solids); assay type: physicochemical; conditions: organic solvent or mixture, thermodynamic from solid; IPrOAc:Heptane 1:1, 5° C., 24 hours
Value Type: solubility at 24 h (µg/mL)
Give just the number in µg/mL; leave the unit off.

Memo: C[C@@H]1CN(Cc2ncccn2)C[C@H]1c1cn2c(C3CCOCC3)ncc2c(=O)[nH]1 , reported solubility at 24 h: 1900

###

assay: Solubility assessment of MH1 in solvents (HPLC of liquors, XRPD of isolated solids); format: physicochemical; settings: organic solvent or mixture, thermodynamic from solid; IPA:Heptane 1:1, 5° C.
Value Type: solubility at 24 h (mg/mL)
Supply the numeric figure in mg/mL, leaving out any unit text.

For this compound ( C[C@@H]1CN(Cc2ncccn2)C[C@H]1c1cn2c(C3CCOCC3)ncc2c(=O)[nH]1 [MH1] ), measured solubility at 24 h is 40

###

test: Solubility assessment of MH1 in solvents (HPLC of liquors, XRPD of isolated solids); type: physicochemical; conditions: organic solvent or mixture, thermodynamic from solid; IPA:Heptane 1:1, 50° C.
Value Type: solubility at 24 h

Short answer for C[C@@H]1CN(Cc2ncccn2)C[C@H]1c1cn2c(C3CCOCC3)ncc2c(=O)[nH]1 : solubility at 24 h was > 200 mg/mL

###

assay: Solubility assessment of MH1 in solvents (HPLC of liquors, XRPD of isolated solids); type: physicochemical; settings: ethanol with 4.2% water, organic solvent or mixture, thermodynamic from solid; Ethanol:4.2% water, 5° C., 24 hours
Value Type: solubility at 24 h

In plain terms, C[C@@H]1CN(Cc2ncccn2)C[C@H]1c1cn2c(C3CCOCC3)ncc2c(=O)[nH]1 has a documented solubility at 24 h of > 200 mg/mL

###

experiment: Solubility assessment of MH1 in solvents (HPLC of liquors, XRPD of isolated solids); type: physicochemical; details: organic solvent or mixture, thermodynamic from solid; THF:0.8% water, 5° C., 24 hours
Value Type: solubility at 24 h (mg/mL)
Report the figure in mg/mL without appending any unit label.

The reported value for C[C@@H]1CN(Cc2ncccn2)C[C@H]1c1cn2c(C3CCOCC3)ncc2c(=O)[nH]1 in terms of solubility at 24 h is 76

###

experiment: Solubility assessment of MH1 in solvents (HPLC of liquors, XRPD of isolated solids); type: physicochemical; conditions: organic solvent or mixture, thermodynamic from solid; THF, 50° C., 24 hours
Value Type: solubility at 24 h

Please fill in: solubility at 24 h reported for C[C@@H]1CN(Cc2ncccn2)C[C@H]1c1cn2c(C3CCOCC3)ncc2c(=O)[nH]1 = > 200 mg/mL

###

assay: Solubility assessment of MH1 in solvents (HPLC of liquors, XRPD of isolated solids); type: physicochemical; conditions: organic solvent or mixture, thermodynamic from solid; Ethanol:Heptane 1:1, 5° C., 24 hours
Value Type: solubility at 24 h (mg/mL)
The answer is to be given in mg/mL; state only the numeric part.

Input C[C@@H]1CN(Cc2ncccn2)C[C@H]1c1cn2c(C3CCOCC3)ncc2c(=O)[nH]1 [MH1] . Output solubility at 24 h: 170

###

assay: Thermodynamic aqueous solubility; format: physicochemical; conditions: thermodynamic from solid, water, 25° C.
Value Type: solubility thermodynamic at 24 h (mg/mL)
Please state the figure in mg/mL; there is no need to write the unit.

// sample C[C@@H]1CN(Cc2ncccn2)C[C@H]1c1cn2c(C3CCOCC3)ncc2c(=O)[nH]1 , its solubility thermodynamic at 24 h was 36.5
